- System: ovarian cancer cells with (OVCAR8, OVCAR4) or without (OVSAHO, CAOV3) MYC-HSF1 amplification
- Experiment Description: Epigenetic inhibitor drug screen, cell viability (Cell Titer Blue)
- Type: cell-based
- Test Context: 10 uM, 48 hrs; average relative cell viability (vs 1% DMSO) of non-amplified cells (OVSAHO, CAOV3) minus that of MYC-HSF1 amplified cells (OVCAR8, OVCAR4); positive = greater response in amplified cells
Where a name gives a salt, the structure may show the parent alone.
Quantity Kind: Non Amp - AMP (POC) 10 uM

compound="CCCOc1ccc(CCc2nc3cc(-c4c(C)noc4C)ccc3n2CCN2CCOCC2)cc1.Cl [PF-CBP1 hydrochloride]" quantity_kind="Non Amp - AMP (POC) 10 uM" measurement_units=POC numeric_result=9.953
compound=Nc1nc(OCc2cc(Br)cs2)c2[nH]cnc2n1 quantity_kind="Non Amp - AMP (POC) 10 uM" measurement_units=POC numeric_result=9.851
compound=O=C(/C=C/c1ccc(O)c2c1[C@H](C(=O)O[C@H](Cc1ccc(O)c(O)c1)C(=O)O)[C@@H](c1ccc(O)c(O)c1)O2)O[C@H](Cc1ccc(O)c(O)c1)C(=O)O quantity_kind="Non Amp - AMP (POC) 10 uM" measurement_units=POC numeric_result=2.345
compound=COc1cc2nc(N3CCCN(C)CC3)nc(NC3CCN(Cc4ccccc4)CC3)c2cc1OC quantity_kind="Non Amp - AMP (POC) 10 uM" measurement_units=POC numeric_result=−4.372
compound=CCOC(=O)C1=CN(Cc2ccccc2)C=C(C(=O)OCC)C1c1ccccc1 quantity_kind="Non Amp - AMP (POC) 10 uM" measurement_units=POC numeric_result=4.191
compound=O=C(O)CNC(=O)C(=O)O quantity_kind="Non Amp - AMP (POC) 10 uM" measurement_units=POC numeric_result=14.36
compound="Cc1cnc(Nc2ccc(OCCN3CCCC3)cc2)nc1Nc1cccc(S(=O)(=O)NC(C)(C)C)c1 [TG101348 (SAR302503)]" quantity_kind="Non Amp - AMP (POC) 10 uM" measurement_units=POC numeric_result=−1.346
compound="COC(=O)/C=C/C(=O)N(O)CCCCNCc1ccc(COC(=O)Nc2cccc3ccccc23)cc1 [Methylstat (hydrate), Methylstat]" quantity_kind="Non Amp - AMP (POC) 10 uM" measurement_units=POC numeric_result=−5.079
compound="Br.CC1CC/C(=N\\Nc2nc(-c3ccc(Cl)cc3)cs2)C1 (centres unmarked) [CPTH6 (hydrobromide)]" quantity_kind="Non Amp - AMP (POC) 10 uM" measurement_units=POC numeric_result=13.3
compound=N#Cc1ccc(COc2ccc(-c3cccc4nc(NC(=O)C5CC5)nn34)cc2)cn1 quantity_kind="Non Amp - AMP (POC) 10 uM" measurement_units=POC numeric_result=−7.702
compound=O=c1[nH]cnc2c1ncn2[C@@H]1O[C@H](CO)[C@@H](O)[C@H]1O quantity_kind="Non Amp - AMP (POC) 10 uM" measurement_units=POC numeric_result=−1.319
compound=CO[C@@H](C(=O)N1Cc2n[nH]c(NC(=O)c3ccc(N4CCN(C)CC4)cc3)c2C1)c1ccccc1 quantity_kind="Non Amp - AMP (POC) 10 uM" measurement_units=POC numeric_result=−1.72
compound="Oc1cc(O)c2cc(O)c(-c3cc(O)c(O)c(O)c3)[o+]c2c1 [Delphinidin (chloride), Delphinidin]" quantity_kind="Non Amp - AMP (POC) 10 uM" measurement_units=POC numeric_result=9.89
compound=O=C1Nc2cc(Br)ccc2/C1=C1/Nc2ccccc2/C1=N\O quantity_kind="Non Amp - AMP (POC) 10 uM" measurement_units=POC numeric_result=−1.008
compound=CN(C)Cc1ccc(-c2nc3cccc4c3n2CCNC4=O)cc1 quantity_kind="Non Amp - AMP (POC) 10 uM" measurement_units=POC numeric_result=0.2059
compound="CN(C)Cc1ccc(S(=O)(=O)n2ccc(/C=C/C(=O)NO)c2)cc1 [Resminostat (hydrochloride), Resminostat]" quantity_kind="Non Amp - AMP (POC) 10 uM" measurement_units=POC numeric_result=36.33
compound=COc1cc2ncnc(Nc3ccc(O)c(Br)c3)c2cc1OC quantity_kind="Non Amp - AMP (POC) 10 uM" measurement_units=POC numeric_result=−1.78
compound="O=C([O-])[C@@]1(CCCCCCOc2ccc(Cl)cc2)CO1.[Na+] [(R)-(+)-Etomoxir sodium salt]" quantity_kind="Non Amp - AMP (POC) 10 uM" measurement_units=POC numeric_result=3.941
compound=Oc1nc(-c2ccc(C(F)(F)F)cc2)nc2c1CSCC2 quantity_kind="Non Amp - AMP (POC) 10 uM" measurement_units=POC numeric_result=−6.034
compound="Cl.O=S(=O)(c1cccc2cnccc12)N1CCNCC1 [HA-100 (hydrochloride)]" quantity_kind="Non Amp - AMP (POC) 10 uM" measurement_units=POC numeric_result=12.45
compound=CCCCCCCc1ccc(CCc2cccc(O)c2C(=O)O)cc1 quantity_kind="Non Amp - AMP (POC) 10 uM" measurement_units=POC numeric_result=−0.4614
compound=CN(C)c1ccc(C(=O)NCCCCCCC(=O)NO)cc1 quantity_kind="Non Amp - AMP (POC) 10 uM" measurement_units=POC numeric_result=22.65
compound="CN1CCC(=C2c3ccccc3C=Cc3ccccc32)CC1 [Cyproheptadine (hydrochloride hydrate), Cyproheptadine]" quantity_kind="Non Amp - AMP (POC) 10 uM" measurement_units=POC numeric_result=6.958
compound=Cc1cc(C)c(CNC(=O)c2cc(-c3ccc(CN4CCOCC4)cc3)cc3c2cnn3C2CCCC2)c(=O)[nH]1 quantity_kind="Non Amp - AMP (POC) 10 uM" measurement_units=POC numeric_result=15.13
compound=Cc1noc(C)c1-c1ccc(-c2nc3cnccn3c2NC(C)(C)C)cc1 quantity_kind="Non Amp - AMP (POC) 10 uM" measurement_units=POC numeric_result=−3.692
compound=Nc1ccn([C@@H]2O[C@H](CO)[C@@H](O)[C@@H]2O)c(=O)n1 quantity_kind="Non Amp - AMP (POC) 10 uM" measurement_units=POC numeric_result=1.9
compound=CN[C@@H]1C[C@H]2O[C@@](C)([C@@H]1OC)n1c3ccccc3c3c4c(c5c6ccccc6n2c5c31)C(=O)NC4 quantity_kind="Non Amp - AMP (POC) 10 uM" measurement_units=POC numeric_result=7.23
compound=CS(=O)(=O)c1ccc(-c2cnc(NCc3ccco3)n3cnnc23)cc1 quantity_kind="Non Amp - AMP (POC) 10 uM" measurement_units=POC numeric_result=32.64
compound=O=C1C(=Cc2cccnc2)C(=O)c2ccccc21 quantity_kind="Non Amp - AMP (POC) 10 uM" measurement_units=POC numeric_result=1.398
compound=Cc1cc(Nc2cc(N3CCN(C)CC3)nc(Sc3ccc(NC(=O)C4CC4)cc3)n2)[nH]n1 quantity_kind="Non Amp - AMP (POC) 10 uM" measurement_units=POC numeric_result=−20.25
compound=CN1CCN(c2ccc(-c3cccc(CN4CCOCC4)c3)cc2NC(=O)c2c[nH]c(=O)cc2C(F)(F)F)CC1 quantity_kind="Non Amp - AMP (POC) 10 uM" measurement_units=POC numeric_result=12.58
compound=O=S(=O)(O)c1ccc2cc(N=Nc3cc(S(=O)(=O)O)c4cccnc4c3O)ccc2c1 quantity_kind="Non Amp - AMP (POC) 10 uM" measurement_units=POC numeric_result=8.877

---

- Test system: ovarian cancer cells with (OVCAR8, OVCAR4) or without (OVSAHO, CAOV3) MYC-HSF1 amplification
- Experiment Description: Epigenetic inhibitor drug screen, cell viability (Cell Titer Blue)
- Assay type: cell-based
- Test Context: 10 uM, 48 hrs; average relative cell viability (vs 1% DMSO) of non-amplified cells (OVSAHO, CAOV3) minus that of MYC-HSF1 amplified cells (OVCAR8, OVCAR4); positive = greater response in amplified cells
Where a name gives a salt, the structure may show the parent alone.
Mark each entry 1 (yes) if its Non Amp - AMP (POC) 10 uM sits below 6 POC, and 0 (no) for all others.

compound=COc1cccc2c1C(=O)c1c(O)c3c(c(O)c1C2=O)C[C@@](O)(C(=O)CO)C[C@@H]3O[C@H]1C[C@H](N)[C@H](O[C@@H]2CCCCO2)[C@H](C)O1 category_label="0 (no)"
compound=CN(C)c1ccc(-c2nc3ncc(Cl)c(N4CCN(CC(=O)Nc5nccs5)CC4)c3[nH]2)cc1 category_label="1 (yes)"
compound=Cc1cc(Cl)ccc1OCCCC(=O)NO category_label="1 (yes)"
compound=CC1=CC(=O)c2c(O)cccc2C1=O category_label="1 (yes)"
compound=Cc1cc(-c2nc(-c3ccc(OC(F)(F)F)cc3)no2)nn1Cc1ccnc(N2CCN(C3CC3)CC2)c1 category_label="0 (no)"
compound=CCN(CC)C(=O)/C(C#N)=C/c1cc(O)c(O)c([N+](=O)[O-])c1 category_label="1 (yes)"
compound=O=C(/C=C/c1cccc(C(=O)NO)c1)NO category_label="0 (no)"
compound="O=C(O)CCNc1cc(N2CCc3ccccc3CC2)nc(-c2ccccn2)n1 [GSK-J1 (sodium salt)]" category_label="0 (no)"
compound=Cc1cc(Nc2nc(N[C@@H](C)c3ncc(F)cn3)ncc2Cl)[nH]n1 category_label="1 (yes)"
